B1: HDV Ribozyme (parent)
chain: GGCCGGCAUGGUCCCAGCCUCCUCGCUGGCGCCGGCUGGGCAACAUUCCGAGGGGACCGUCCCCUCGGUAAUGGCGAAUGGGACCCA

# Variants of: B1
# assay-overview: self-cleavage, relative activity (ratio to wild type); higher = more cleavage; co-transcriptional
Provide the reported self-cleavage of each item.
Numbers only.

Reference set (8 entries):
mutation-list	self-cleavage
G38C U60A	0.38
A42G A77U	0
A42G G53A	0.496
U12A A83C	0.35
U27C G50U	0.628
C36A G73C	0.178
G10U G29A	0.0536
G29A G74C	0.0831

List self-cleavage for every entry below, keeping the order given.
1. G1U C61G
2. G29C C66U
3. C61G G80U
4. C58A A70C
5. G68U U79A
6. G31C C48A
7. C57U G82A

[0.326, 0.0573, 0.275, 1.04, 0.928, 0.449, 0.269]

Report self-cleavage for each item below.
1. G68A C85U
2. G25U G67A
3. U37A A78C
4. G29C G50A
5. G17C C41A
6. U20C G67U
7. U27G G53C
8. G67A C84G

1. 0.95
2. 0.227
3. 0.0997
4. 0.0277
5. 0.111
6. 0.175
7. 1.01
8. 0.369

Each variant below has a reported value. Please supply its self-cleavage.
1. U37A C57A
2. G17A C21U
3. C62U G67C
4. G10C C64U
5. C18U U46G
6. C19U C61A

1: 0.212; 2: 0; 3: 0.923; 4: 0.892; 5: 0.277; 6: 0.243

For each entry beneath this line, provide reported self-cleavage.
1. G6A C13G
2. C41A C62A
3. C14U U37C
4. G10C C58U
5. G29C G82U
6. G28C G67A
7. C62A G68U
8. C15G A51U

0
0.77
1.32
1.23
0.0959
0.0707
0.939
0.475

// each variant listed below needs its self-cleavage
1. G29C U37C
2. C44U A77G
3. G40U G53C
4. U65G C86U
5. G31A A77U

1. 0.0898
2. 0.923
3. 0.519
4. 0.966
5. 0.0906

Record self-cleavage for all entries; do not skip any.
1. C7A G50C
2. C19G A43G
3. C3U C36A

[0.415, 0.155, 0.132]

Short answer for C57G C62A : self-cleavage was 0.957

These measurements were taken from the RNAGym collection of RNA variant scans (doi:10.7554/elife.80360).
